experiment: Components of the Cytosolic LPS Sensing Pathway: Gene Identification via Genome-wide siRNA Screen; details: RAW264.7 macrophages, IL-1a HTRF, actives lie on both sides, screened at 100 nM (by protocol), cells primed 5 h with Pam3CSK4 first;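 further: robust z of the log signal after scaling to non-targeting control siRNA wells of the plate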
About 3,700 (7%) of roughly 53,000 sequences were called active.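 How the source made its calls: active means gene knockdowns whose robust z-score for IL-1 alpha signal is at least 2 or at most -2, so actives lie on both sides; inactive means the rest.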 Shown is part of a subset that was picked to be rich in actives.
Labels: TRUE = active, FALSE = inactive

GGGAAAUUGUGUAGCAGCUTT against Slc25a29 | TRUE
GGUUCUUAAUGCAUUCCCGTT against Cyp2d9 | FALSE
GGACACAGGACUCUACACCTT against Psg16 | FALSE
UCACUUGUACCAAAAAUGATT against Adcy1 | FALSE
GGUGACAAAGGUGUUAGAATT against Itpkc | FALSE
GGUUCUAGGCAGUUUGAUATT against Tlnrd1 | FALSE
CCAACUAAUCCCAUAUUCCTT against Tmem43 | FALSE
CGAGAAAAACGAUUUACUGTT against Orai2 | FALSE
GGAGAAACUCUUCAGGCUUTT against Tceal8 | TRUE
CCUAUGCAUCAGACCUUUGTT against Nedd9 | TRUE
GGAAAGCAGACAUCGACCUTT against Rps18 | FALSE
GGGAUACUCCAAGUUCCAUTT against Muc4 | TRUE

###

Test: Components of the Cytosolic LPS Sensing Pathway: Gene Identification via Genome-wide siRNA Screen;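 further: robust z of the log signal after scaling to non-targeting control siRNA wells of the plate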
Conditions: RAW264.7 macrophages, IL-1a HTRF, actives lie on both sides, screened at 100 nM (by protocol), cells primed 5 h with Pam3CSK4 first
Procedure: Non-canonical inflammasome activation by cytosolic LPS is a critical component of the host response to Gram-negative bacterial infection, however we lack a comprehensive understanding of the cellular processes that control this pathway. […] Lipofectamine RNAiMAX Transfection Reagent ([…]; Invitrogen) was added in […] serum-free, antibiotic-free media to plate wells using a Thermo Scientific Matrix WellMate and Microplate Stacker. […] The plates were read on an EnVision plate reader (PerkinElmer). […]
About 3,700 (7%) of roughly 53,000 sequences were called active.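 How the source made its calls: active means gene knockdowns whose robust z-score for IL-1 alpha signal is at least 2 or at most -2, so actives lie on both sides; inactive means the rest.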 The sample as a whole holds a higher share of actives than the screen did.
Labels: label 1 (active), label 0 (inactive)

GGAAAGCUUCAAAAUGGUGTT against Foxj2 | label 0
GCCAACAGUACUUUGUUAATT against Chordc1 | label 0
GGAGAAAAGUACCAAGAUGTT against Ifi27l2b | label 0
GGAUUUUAGUGAAUUCCAUTT against Asah1 | label 0
GCAGGAUGUGACAGAUACATT against Pdcd2 | label 0
GGAGGAUGGUGCCAACAUUTT against Psmc3 | label 1
GGAAAGAAUUGAAUACUCGTT against Gpr89 | label 0
GCCAUUCUAGAACCUGUAGTT against Zwint | label 0
GGUUUGAGGUAACACUAGATT against Vps39 | label 0
GCUACUCUCUAUUGGUUUUTT against Gpr45 | label 1
GGAAGUCUAGGUAAAAAAGTT against Samsn1 | label 0
GCUCAUCUCCUUGAAUUCATT against Agbl5 | label 0

###

List of z-score values.
assay: Components of the Cytosolic LPS Sensing Pathway: Gene Identification via Genome-wide siRNA Screen; details: RAW264.7 macrophages, IL-1a HTRF, actives lie on both sides, screened at 100 nM (by protocol), cells primed 5 h with Pam3CSK4 first;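 further: robust z of the log signal after scaling to non-targeting control siRNA wells of the plate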
Among all 53,000 sequences or so, about 3,700 (7%) were called active. Shown is part of a subset that was picked to be rich in actives.
test-readout: z-score

GGAACGAGAAUCGGAGAUGTT against Mapk8ip3 | 2.92
GCUUCUCAGAAGAUGUACUTT against Rgs16 | -1.06
GAGAGAGAAUACCACUGUGTT against Gm5431 | -0.244
AGUCAAGACCCAUAGAAAATT against Ociad2 | -1.87
GCUCGCCUGCAUUUCAUCATT against Pank4 | 3.3
GCUCAUCGGAGAGUUCUAUTT against Ube2h | 0.594
GCUGUUAAACGAAAUGUACTT against Esx1 | -0.298
GGUCUAGCUCUGAAACAUCTT against Pms2 | 2.27
AUGCGUCCUUCACCAACGATT against Tmem158 | -3.28
GGGUUUGGUCGUAAACAGCTT against Limd2 | -1.06
CCUGUCCUGAUGGUGAAACTT against Serpinb3c | 0.619
GUUACCUCGUGGAAAGCAUTT against Vmn1r43 | -0.345
CCAGGAAUCUAGAUAAUAGTT against BC031181 | -1.05
CCGUAUUUGUGCUGUGUCUTT against Olfr275 | -1.53
GCUGGAAAAGUGCUGUGGGTT against Sult1c1 | -0.494
GGCCCAAACCUUAAAGUCCTT against Smyd4 | -0.194
GCUCCUGUACAGUUCAAACTT against Mrpl17 | 0.0768
CCCAGGGUACCUCACAUCUTT against Nrp1 | -0.595
GGAUUGGGUUACAUACAGATT against Scgb2b2 | -0.0731
CCUGAACGACAGAUUGGCATT against Krt20 | -0.697
GGCUCUCAUUGAUGCAUGUTT against Cpeb4 | -0.264
GCUGUUGCUGGCUAUUCUGTT against Eef2kmt | -2.3
GGAAUUCAUACCCUUGUUGTT against B3gnt5 | -0.486
GGAGCUGAAGCCAUUCAACTT against Gpx6 | 2.08
GGGCGAUGAAGAAGAGAAATT against Smad1 | -0.443
